Hey, just so you know, these numbers are from ChEMBL document CHEMBL5108065.

test: Cmax in Cynomolgus monkey blood at 10 mg/kg, po measured at 2 to 72 hrs by LC-MS/MS analysis; assay type: ADME, organism-based, Macaca fascicularis; parameters: dose 10 mg/kg, time 2-72 hrs, route po; settings: whole blood
value.kind: Cmax (nM)
Output spec: scalar in nM, unitless text.

## Input Provide measured Cmax value, entry: C[C@H]1C[C@@H](N2C(=N)N[C@](C)(c3cccc(NC(=O)c4cccc(C#N)c4)c3Cl)CC2=O)CCO1
## Output 2560

* * *

// values below are IC50; system is Renin (Homo sapiens, UniProt P00797)
Sequence (P00797 whole entry): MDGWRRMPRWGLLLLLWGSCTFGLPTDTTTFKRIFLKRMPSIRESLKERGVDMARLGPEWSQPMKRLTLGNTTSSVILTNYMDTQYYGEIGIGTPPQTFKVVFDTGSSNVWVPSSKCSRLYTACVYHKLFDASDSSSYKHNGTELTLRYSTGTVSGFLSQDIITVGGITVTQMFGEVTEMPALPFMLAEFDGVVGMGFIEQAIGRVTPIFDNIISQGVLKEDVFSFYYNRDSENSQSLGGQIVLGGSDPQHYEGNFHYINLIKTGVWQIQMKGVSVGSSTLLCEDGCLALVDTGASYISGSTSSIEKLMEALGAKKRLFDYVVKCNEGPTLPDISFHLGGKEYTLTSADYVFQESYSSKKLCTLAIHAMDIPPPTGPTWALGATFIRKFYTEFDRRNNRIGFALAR
Output spec: scalar in nM, unitless text.

Take a look at these entries with their results.
| chemical.structure | readout.unit | IC50 |
| --- | --- | --- |
| C[C@H]1C[C@@H](N2C(=N)N[C@](C)(c3cccc(Nc4ccc(C5CC5)nc4)c3Cl)CC2=O)CCO1 | nM | 180 |
| [H]/N=C1\N[C@](C)(c2cccc(Nc3cnc(C4CC4)nc3)c2Cl)CC(=O)N1[C@H]1CCO[C@@H](C)C1 | nM | 2360 |

We next turn to a different molecule, shown below.
## Input Answer with IC50 of C[C@@]1(c2cccc(Nc3ccc(C4CC4)nc3)c2Cl)CC(=O)N(C2CCOCC2)C(=N)N1 measured for Renin (Homo sapiens, UniProt P00797).
## Output 1070
